Values compiled from patent US20210277009A1.

Target: PRMT5-MEP50 enzyme complex (Homo sapiens)
Construct: 1.25 nM of Full-length (FL)-PRMT5-MEP50 enzyme complex; made in house; host or cells: baculovirus-transfected Sf21 cells
Sequence (O14744 whole entry): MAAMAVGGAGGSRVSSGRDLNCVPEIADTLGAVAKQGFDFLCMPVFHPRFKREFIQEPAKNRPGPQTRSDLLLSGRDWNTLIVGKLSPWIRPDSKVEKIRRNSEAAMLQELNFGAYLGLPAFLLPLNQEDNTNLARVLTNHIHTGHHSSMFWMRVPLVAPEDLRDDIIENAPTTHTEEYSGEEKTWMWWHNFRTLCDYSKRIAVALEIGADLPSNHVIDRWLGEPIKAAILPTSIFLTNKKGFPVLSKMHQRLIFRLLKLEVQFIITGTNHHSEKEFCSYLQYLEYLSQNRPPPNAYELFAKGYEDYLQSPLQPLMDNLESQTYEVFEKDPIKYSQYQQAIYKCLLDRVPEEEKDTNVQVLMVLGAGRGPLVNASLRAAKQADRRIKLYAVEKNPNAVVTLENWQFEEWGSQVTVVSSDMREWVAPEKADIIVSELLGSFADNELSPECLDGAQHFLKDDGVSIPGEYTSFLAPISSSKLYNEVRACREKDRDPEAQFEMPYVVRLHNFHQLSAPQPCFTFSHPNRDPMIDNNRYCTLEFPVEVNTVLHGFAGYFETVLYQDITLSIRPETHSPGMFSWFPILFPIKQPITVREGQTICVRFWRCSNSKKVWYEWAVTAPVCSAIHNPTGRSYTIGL
Sequence (Q9BQA1 whole entry partner): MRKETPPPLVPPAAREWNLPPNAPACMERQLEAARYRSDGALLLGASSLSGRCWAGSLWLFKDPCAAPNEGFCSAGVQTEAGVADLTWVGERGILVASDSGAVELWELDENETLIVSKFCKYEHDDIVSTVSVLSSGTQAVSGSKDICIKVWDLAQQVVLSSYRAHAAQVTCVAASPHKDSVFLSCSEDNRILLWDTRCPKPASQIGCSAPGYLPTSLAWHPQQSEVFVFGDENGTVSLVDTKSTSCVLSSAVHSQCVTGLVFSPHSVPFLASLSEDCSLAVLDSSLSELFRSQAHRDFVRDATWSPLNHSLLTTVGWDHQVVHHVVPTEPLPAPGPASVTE
Experiment: PRMT5-MEP50 Enzyme Methylation Assay
Type: biochemical
Settings: single EC50 from 4 parameters single site sigmoidal model, or first EC50 of 7 parameters biphasic model; 1.0 nM PRMT5-MEP50, H4R3(Me1) peptide, SAM; read-out: Enzyme Methylation Assay (EC50 or EC50_1)
attribute_measured: EC50 (nM)

Examples with their reported EC50 follow.
# compound, scale_unit, EC50
data = [
    ("CNc1ncnc2c1ccn2[C@@H]1S[C@H](CCc2ccc3cc(Br)c(N)nc3c2)[C@@H](O)[C@H]1O", "nM", 0.6),
    ("Nc1ncnc2c1ccn2[C@@H]1S[C@H](COc2ccc3ccc(NCC4CC4)nc3c2)[C@@H](O)[C@H]1O", "nM", 1.2),
    ("Cc1ncnc2c1ccn2[C@@H]1S[C@@H](CCc2ccc3cc(Br)c(N)nc3c2)[C@@H](O)[C@H]1O", "nM", 0.4),
    ("Nc1nc2cc(OC[C@H]3S[C@@H](n4ccc5c(Cl)ncnc54)[C@H](O)[C@@H]3O)ccc2cc1Cl", "nM", 26.2),
    ("Nc1nc2cc(CC[C@H]3S[C@@H](n4cc(F)c5c(N)ncnc54)[C@H](O)[C@@H]3O)ccc2cc1Br", "nM", 0.4),
]

I: Cc1ncnc2c1ccn2[C@@H]1S[C@H](CCc2ccc3ccc(N)nc3c2)[C@@H](O)[C@H]1O
II: Cc1ncnc2c1ccn2[C@@H]1S[C@@H](CCc2ccc3cc4c(nc3c2)NC(C)C4)[C@@H](O)[C@H]1O (single isomer, unassigned) [Example 39]
Ask: Short answer wanted: higher EC50, I or II ? Please identify the chosen entry by its label.
Result: II

###

Molecular target: PRMT5-MEP50 enzyme complex (Homo sapiens)
Construct: 1.25 nM of Full-length (FL)-PRMT5-MEP50 enzyme complex; made in house; host or cells: baculovirus-transfected Sf21 cells
Experiment: PRMT5-MEP50 Enzyme Methylation Assay
Type: biochemical
Details: single EC50 from 4 parameters single site sigmoidal model, or first EC50 of 7 parameters biphasic model; 1.0 nM PRMT5-MEP50, H4R3(Me1) peptide, SAM; read-out: Enzyme Methylation Assay (EC50 or EC50_1)
pEC50: −log10 of the molar value.
attribute_measured: pEC50

Use these answered entries as a reference point.
# molecule, pEC50
rows = [
    ("Cc1ncnc2c1ccn2[C@@H]1S[C@@H](CCc2ccc3cc(F)c(N)nc3c2)[C@@H](O)[C@H]1O [Example 23]", 7.23),
    ("Cc1ncnc2c1ccn2[C@@H]1S[C@@H](CCc2ccc3cc4c(nc3c2)NC(C)C4)[C@@H](O)[C@H]1O (single isomer, unassigned) [Example 40]", 7.24),
]

A: Nc1nc2cc(CC[C@@H]3S[C@@H](n4ccc5c(N)ncnc54)[C@H](O)[C@@H]3O)ccc2cc1Cl [Example 42]
B: CC1(COc2ccc3cc(Br)c(N)nc3c2)SC(n2ccc3c(N)ncnc32)C(O)C1O (centres unmarked) [Example 7]
Ask: // compare measured pEC50 between A and B ; output the lower one Write down the label of the entry you select.
Result: B

I: COc1ncnc2c1ccn2[C@@H]1S[C@H](COc2ccc3ccc(N)nc3c2)[C@@H](O)[C@H]1O [Example 10]
II: Cc1ncnc2c1ccn2[C@@H]1S[C@@H](CCc2ccc3ccc(N)nc3c2)[C@@H](O)[C@H]1O [Example 16]
III: COc1ncnc2c1ccn2[C@@H]1S[C@H](COc2ccc3ccc(NCC4CC4)nc3c2)[C@@H](O)[C@H]1O [Example 8]
Ask: Provide the items ranked by increasing pEC50. Answer by naming the labels in the order asked.
Result: III, I, II
(III: 4.42, I: 7.71, II: 8.77)
